biological target: RBDSARS-CoV-2 (SARS-CoV-2 S protein residues 319-539, C-terminal His-tag) (SARS-CoV-2, UniProt P0DTC2 319-539); assay: ELISA
endpoint: IC50

Worked cases, answers included:
- binder: "4P-76 (VHH) VHH: EVQLVESGGGLVQAGDSLRLSCAASERTGINYAMGWFRQAPGKERDFVAAIGWNGSITKYAESVKGRFTLSRDDAMNTVSLQMNSLKPEDTAVYYCAARIGSIANLQYREYEFAYWGQGTQVTVSS"
  IC50: "10 to 100 nM"
- binder: "4P-85 (VHH) VHH: QVQLVESGGGLVQAGGSLRLSCAVSGRTVSTYGMAWFRQTPGKKERDFVATITRSEGTTFYADSVKGRFTISRDNAKNTVYLQMNSLKIEDTAVYYCAVRRDSSWGYSRDLFEYDDWGQGTQVTVSS"
  IC50: "< 10 nM"
- binder: "5p-68 (VHH) VHH: QVQLVESGGGLVQAGGSLRLSCVASGRTFSTSHMGWFRQAPGKEREFVAVISRSGSSTLDADSVKGRFTISRDNAKNTVYLQMNSLKPEDTAVYYCAGSRTAGLTSNRFLYDSWGQGTQVTVSS"
  IC50: "< 10 nM"

IC50 measured on 5p-17 (VHH) VHH: QVQLVESGGGLVQAGGSLRVSCAASGRSFSDYAMAWFRQSPGKEREFVAVITSGRSTDYADSVKGRFTISRDNAKNTVYLQMNSLKPEDTAVYYCAADQTPLRFSYSLSRDKYDYWGQGTQVTVSS = < 10 nM
